- system_under_test: the molecule itself
- assay_procedure: SEC-SAXS; variants in GDAP1Δ303–358; 100 μl at 1.7–36 mg/ml (maximum concentration for each variant) injected onto a BioSEC3-300 column, 25 mM HEPES pH 7.5, 300 mM NaCl, +15°C; top of the peak analysed
# stoichiometry N annotations
Write no unit; give the number alone.

Illustrative cases are given below, each with its answer.
protein	stoichiometry N
GDAP1Δ303–358 R161H (domain or fragment, human, UniProt Q8TB36-1 1-302, looked up, human GDAP1 lacking residues 303-358 (GDAP1Δ303–358) with the CMT-linked mutation R161H; CMT disease variant; source: E. coli BL21(DE3), autoinduction, purified (Ni-NTA, TEV cleavage, reverse Ni-NTA, SEC); not shown: His6, N-terminal, cleaved) MAERQEEQRGSPPLRAEGKADAEVKLILYHWTHSFSSQKVRLVIAEKALKCEEHDVSLPLSEHNEPWFMRLNSTGEVPVLIHGENIICEATQIIDYLEQTFLDERTPRLMPDKESMYYPRVQHYRELLDSLPMDAYTHGCILHPELTVDSMIPAYATTRIHSQIGNTESELKKLAEENPDLQEAYIAKQKRLKSKLLDHDNVKYLKKILDELEKVLDQVETELQRRNEETPEEGQQPWLCGESFTLADVSLAVTLHRLKFLGFARRNWGNGKRPNLETYYERVLKRKTFNKVLGHVNNILIS	2
GDAP1Δ303–358 R120Q (domain or fragment, human, UniProt Q8TB36-1 1-302, looked up, human GDAP1 lacking residues 303-358 (GDAP1Δ303–358) with the CMT-linked mutation R120Q; CMT disease variant; source: E. coli BL21(DE3), autoinduction, purified (Ni-NTA, TEV cleavage, reverse Ni-NTA, SEC); not shown: His6, N-terminal, cleaved) MAERQEEQRGSPPLRAEGKADAEVKLILYHWTHSFSSQKVRLVIAEKALKCEEHDVSLPLSEHNEPWFMRLNSTGEVPVLIHGENIICEATQIIDYLEQTFLDERTPRLMPDKESMYYPQVQHYRELLDSLPMDAYTHGCILHPELTVDSMIPAYATTRIRSQIGNTESELKKLAEENPDLQEAYIAKQKRLKSKLLDHDNVKYLKKILDELEKVLDQVETELQRRNEETPEEGQQPWLCGESFTLADVSLAVTLHRLKFLGFARRNWGNGKRPNLETYYERVLKRKTFNKVLGHVNNILIS	2

Please look at the following protein next.
Write down stoichiometry N measured for item GDAP1Δ303–358 H256R (domain or fragment, human, UniProt Q8TB36-1 1-302, looked up, human GDAP1 lacking residues 303-358 (GDAP1Δ303–358) with the CMT-linked mutation H256R; CMT disease variant; source: E. coli BL21(DE3), autoinduction, purified (Ni-NTA, TEV cleavage, reverse Ni-NTA, SEC); not shown: His6, N-terminal, cleaved) MAERQEEQRGSPPLRAEGKADAEVKLILYHWTHSFSSQKVRLVIAEKALKCEEHDVSLPLSEHNEPWFMRLNSTGEVPVLIHGENIICEATQIIDYLEQTFLDERTPRLMPDKESMYYPRVQHYRELLDSLPMDAYTHGCILHPELTVDSMIPAYATTRIRSQIGNTESELKKLAEENPDLQEAYIAKQKRLKSKLLDHDNVKYLKKILDELEKVLDQVETELQRRNEETPEEGQQPWLCGESFTLADVSLAVTLRRLKFLGFARRNWGNGKRPNLETYYERVLKRKTFNKVLGHVNNILIS
2
